Ref: PubChem BioAssay (NCI)

Below is a list of entries, each paired with its recorded growth value.
Test system: SK-OV-3 ovarian
assay_remarks: NCI-60 one-dose screen, 48 h (100 = growth as untreated, 0 = no growth, -100 = all killed)
run_conditions: 10 µM unless noted
The panel holds about 83,000 compounds, 20% with a hit somewhere; the sample as a whole holds those more often.
Respond with the bare value in %.

compound	test_system	units_symbol	growth
N#CC[C@H](C1CCCC1)n1cc(-c2ncnc3[nH]ccc23)cn1	SK-OV-3 ovarian	%	38.4

Requested field: growth. Item: C=CC(=O)Nc1cc2c(Nc3ccc(F)c(Cl)c3)ncnc2cc1OCCCN1CCOCC1
-16.3

Quick one: N#Cc1ccc(-n2nnc3ccccc32)cc1C#N
98.8

Now consider COc1cc(F)c(F)c(Nc2ccc(I)cc2F)c1NS(=O)(=O)C1(C[C@H](O)CO)CC1 and answer again.
51.3

Param item: CN1CCN(c2ccc(C(=O)Nc3n[nH]c4ccc(Cc5cc(F)cc(F)c5)cc34)c(NC3CCOCC3)c2)CC1
20.1

And what about the compound O=C1CCC(=O)CC1 ?
112

Try the compound CNS(=O)(=O)Nc1nccc(Cc2c(C)c3ccc(Oc4ncccn4)cc3oc2=O)c1F
53.3

And the next one, CCCCCc1ccc(C)cc1OC(=O)CCl ?
107

What about COc1ccc2c(CCc3ccc(Cl)cc3)c3[n+](cc2c1OC)CCc1cc2c(cc1-3)OCO2 ?
75.2

Continue with Cn1ccnc1C(=O)/C=C/c1ccc(CC(=O)Nc2ccc(S(F)(F)(F)(F)F)cc2)cc1
18.4

// next record COc1ccc(CCCc2c3[n+](cc4c(OC)c(OC)ccc24)CCc2cc4c(cc2-3)OCO4)cc1
77.5

Same thing, different compound: c1cn2cc(-c3ccc4cn[nH]c4c3)nc(Nc3ccc(N4CCOCC4)cc3)c2n1
21

What do you have for CCCCCC(=O)OCc1ccc(Cl)c(Cl)c1 ?
107

Consider next the compound CC(C)n1c(NCCc2ccc(O)c(O)c2)nc2c1c(=O)n(C)c(=O)n2C in the same way.
108

Moving on to the next compound: N#CC1(C#N)C(c2cccs2)NC(c2cccs2)C1(C#N)C#N (stereo not given)
99.1

* * *

System: HOP-92 NSCLC
assay_remarks: NCI-60 one-dose screen, 48 h (100 = growth as untreated, 0 = no growth, -100 = all killed)
run_conditions: 10 µM unless noted
This is part of a sample that, as a whole, favours compounds with a hit. Of some 83,000 tested, about 20% had one in any assay.
# growth values compiled below
Your answer is read as %, so omit the unit and give the number.

CCNCCNc1cc(-c2ccc(Cl)c(Cl)c2)c(C#N)c2nc3ccccc3n12 -85.8

Request the reported growth associated with CC(C)[C@@H]1CC[C@]2(CO2)[C@@H]2C(=O)OCC(C(=O)O)=C[C@H]21
-11.9

Now consider COc1cc2ncnc(Nc3ccc(O)cc3)c2cc1OC .
78

Record: Cc1nc(N)sc1-c1ccnc(Nc2ccc(N3CCOCC3)cc2)n1
34.9

Please do the same for O=C(O)c1ccc2c(c1)nc(Nc1cccc(Cl)c1)c1ccncc12 as well.
-20.3

* * *

Tested on: NCI-H226 lung
assay_remarks: NCI-60 one-dose screen, 48 h
run_conditions: 10 µM unless noted
Compounds without any hit were thinned out: in the full panel of roughly 83,000, 20% have a hit. Active and inactive are the calls of the source. How the source made its calls: active means growth percent below 10; inactive means the rest.
Select the correct class. Options are active, inactive and nothing else.

Consider the worked cases shown below.
molecule	assigned_label
CO[C@H]1C[C@@H]2CC[C@@H](C)[C@@](O)(O2)C(=O)C(=O)N2CCCC[C@H]2C(=O)O[C@H]([C@H](C)C[C@@H]2CC[C@@H](OCCO)[C@H](OC)C2)CC(=O)[C@H](C)/C=C(\C)[C@@H](O)[C@H](OC)C(=O)[C@H](C)C[C@H](C)\C=C/C=C/C=C/1C	inactive
C=CC(=O)N1CCC[C@H](n2c(=O)n(-c3ccc(Oc4ccccc4)cc3)c3c(N)ncnc32)C1	inactive
Cc1cc(C)n(CC(=O)Nc2ccc(-c3nc4ccccc4s3)cc2)n1	inactive

Assay outcome for CC(C)=CCc1cc2c(cc1O)C1=C(C(=O)C3=C(C1=O)S(=O)(=O)CCN3)C(C=C(C)C)O2 (centres undefined) : what was it?
active

Can you handle CCN(CC)C(=O)C[N+](C)(C)CCOC(c1ccccc1)c1ccccc1 next?
inactive

Same lookup for CN[C@@H]1C[C@H]2O[C@@](C)([C@@H]1OC)n1c3ccccc3c3c4c(c5c6ccccc6n2c5c31)C(=O)N[C@H]4O , please.
active

Next record, please: CCOc1cc2ncc(C#N)c(Nc3ccc(OCc4ccccn4)c(Cl)c3)c2cc1NC(=O)/C=C/CN(C)C
inactive

Then CCNC(=O)Nc1nc2ccc(Oc3ccnc(C(=O)NC)c3)cc2s1 ?
inactive

Now the molecule Cc1cccc(NC(=O)[C@@H]2c3ccccc3C(=O)N(c3ccc(Cl)cc3)[C@H]2c2ccc(Cl)cc2)n1
inactive

* * *

System: HCC-2998 colon
assay_remarks: NCI-60 one-dose screen, 48 h
run_conditions: 10 µM
The panel holds about 83,000 compounds, 20% with a hit somewhere; the sample as a whole holds those more often. Calls of active or inactive are those of the source. How the source made its calls: active means growth percent below 10; inactive means the rest.
Thanks in advance; please answer with one of these: active, inactive

Worked cases, answers included:
compound	assigned_label
Cn1cnc2c(F)c(Nc3ccc(Br)cc3Cl)c(C(=O)NOCCO)cc21	active
CC(=O)C1=C(C)NC(SCc2nnc(-c3ccc(C)cc3)o2)=NC1c1ccc(F)cc1 (stereo not drawn)	inactive
CC(C)CC(=O)Nc1n[nH]c2c1CN(C(=O)C1CCN(C)CC1)C2(C)C	inactive
CC/C(=C(/c1ccc(Cl)cc1)c1ccc(OCCN2CCCCC2)cc1)c1ccc(Cl)cc1	inactive
c1ccc2c(c1)CCN(NCCN1CCCC1)C2	inactive
CN(C)C[C@@H]1CCn2cc(c3ccccc32)C2=C(C(=O)NC2=O)c2cn(c3ccccc23)CCO1	inactive

Status in this test for Cc1ccc(-c2nc3ccc(Cl)cn3c2NC2CCCCC2)o1 ?
inactive

Can you handle Cc1cc(C2(c3ccc(O)c(C)c3)OS(=O)(=O)c3ccccc32)ccc1O next?
inactive

* * *

Tested on: 786-0 renal
assay_remarks: NCI-60 one-dose screen, 48 h
run_conditions: 10 µM unless noted
The panel holds about 83,000 compounds, 20% with a hit somewhere; the sample as a whole holds those more often. Calls of active or inactive are those of the source. Rule for the calls: active = growth percent below 10; inactive = the rest.
Output constraint: value belongs to 1 (yes) for active, 0 (no) for inactive

compound	assigned_label
CC(C)C1CCC(C)C(C2(C#N)C(N)=NC(N)=C2C#N)C1=O (centres undefined)	0 (no)
CN(C)C[C@@H]1CCn2cc(c3ccccc32)C2=C(C(=O)NC2=O)c2cn(c3ccccc23)CCO1	1 (yes)
COc1ccc2c(CCCc3ccc(Cl)cc3Cl)c3[n+](cc2c1OC)CCc1cc2c(cc1-3)OCO2	0 (no)

Now, please, on to the next compound.
Which outcome was assigned to Nc1ccc(S(=O)(=O)O)c2cc(S(=O)(=O)O)cc(O)c12 in this test?
0 (no)

* * *

The following compounds are shown together with reported growth values.
Test system: HOP-92 NSCLC
assay_remarks: NCI-60 one-dose screen, 48 h (100 = growth as untreated, 0 = no growth, -100 = all killed)
run_conditions: 10 µM unless noted
This is part of a sample that, as a whole, favours compounds with a hit. Of some 83,000 tested, about 20% had one in any assay.
Lab book: enter the figure in %, no units written.

# lookup: growth of COc1cc2c(cc1OCCCCCCN1CCN(c3ncnc4ccccc34)CC1)N=CC1CCCN1C2=O (stereo unspecified)
-21.7

// repeat for COc1ccc(-c2cnc(-c3ccc(Cl)cc3)[nH]2)cc1OC and report
25.8

* * *

Tested on: HCT-15 colon
assay_remarks: NCI-60 one-dose screen, 48 h
run_conditions: 10 µM unless noted
Method: Growth inhibition of the HCT-15 human tumor cell line is measured as a screen for anti-cancer activity. Cells are grown in 96 well plates and exposed to the test compound for 48 hours. Compounds are tested at a single concentration, which is 10^-5 M for most compounds. The reported endpoint is percent growth (GI% or GIPRCNT), where numbers from 0 - 100% represent growth inhibition, and numbers from -100% - 0 represent cell death. For example, a value of 40 represents 60% growth inhibition. […]
The panel holds about 83,000 compounds, 20% with a hit somewhere; the sample as a whole holds those more often. The source made the active and inactive calls. Rule for the calls: active = growth percent below 10; inactive = the rest.
Bench note: report the call from true for active, false for inactive

Some solved entries appear below for comparison.
compound	assigned_label
CCCCCCCC(=O)SCC/C=C/[C@@H]1CC(=O)NCc2cc(ccn2)C2=N[C@@](C)(CS2)C(=O)N[C@@H](C(C)C)C(=O)O1	true
Cc1nn(-c2nc3ccccc3[nH]2)c2c1C(c1ccc(O)cc1)CC(=O)N2 (stereo unspecified)	false
O=[N+]([O-])c1cc(Br)cc2c1[nH]c1ccc(Br)cc12	false
Cc1nc2ccc(-n3ncc(C(=O)c4cc5ccccc5[nH]4)c3N)cc2[nH]1	false
CCCCCCCCCNCCCCCCCCC	false

Now take the following compound into account.
Which outcome did this test record for the compound C/C=C/C=N/NC(=S)Nc1ccccc1 ?
false
